# studySystem: Human SARS-CoV-2_Wuhan S (SmT1) (SARS-CoV-2 (Wuhan), UniProt P0DTC2 14-1208)
# testSummary: SPR, VHH over immobilised S
Hi! Just check whether koff is below 0.001 s⁻¹. Below gives Fulfilled, equal or above gives Not fulfilled.

Please review the following examples before continuing.
NRCoV2-04 VHH (VHH) VHH: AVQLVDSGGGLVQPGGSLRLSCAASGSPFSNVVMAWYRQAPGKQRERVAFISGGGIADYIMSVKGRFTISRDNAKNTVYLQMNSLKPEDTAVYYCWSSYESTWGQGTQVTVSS = Not fulfilled
NRCoV2-MRed04 VHH (VHH) VHH: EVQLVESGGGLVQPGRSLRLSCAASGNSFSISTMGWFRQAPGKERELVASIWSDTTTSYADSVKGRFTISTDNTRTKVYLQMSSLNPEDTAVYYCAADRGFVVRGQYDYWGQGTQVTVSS = Not fulfilled
NRCoV2-06 VHH (VHH) VHH: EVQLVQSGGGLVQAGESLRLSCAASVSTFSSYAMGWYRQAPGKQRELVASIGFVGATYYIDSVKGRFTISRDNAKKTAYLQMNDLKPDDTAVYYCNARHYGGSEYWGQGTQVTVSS = Not fulfilled
NRCoV2-S2F3 VHH (VHH) VHH: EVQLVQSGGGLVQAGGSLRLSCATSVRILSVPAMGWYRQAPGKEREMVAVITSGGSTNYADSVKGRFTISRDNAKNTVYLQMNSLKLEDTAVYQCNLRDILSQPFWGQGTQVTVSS = Fulfilled
NRCoV2-1d VHH (VHH) VHH: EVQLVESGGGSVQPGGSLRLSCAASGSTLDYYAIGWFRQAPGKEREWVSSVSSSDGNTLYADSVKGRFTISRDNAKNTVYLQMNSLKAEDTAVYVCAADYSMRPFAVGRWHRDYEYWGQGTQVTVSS = Not fulfilled

Here's an entry: NRCoV2-SR03 VHH (VHH) VHH: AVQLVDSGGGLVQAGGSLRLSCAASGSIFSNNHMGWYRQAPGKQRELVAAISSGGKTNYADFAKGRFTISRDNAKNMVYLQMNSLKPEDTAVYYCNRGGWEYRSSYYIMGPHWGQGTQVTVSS . Is its koff below 0.001 s⁻¹?
Not fulfilled

Does the reported koff of the following binder sit strictly below 0.001 s⁻¹? NRCoV2-SR01 VHH (VHH) VHH: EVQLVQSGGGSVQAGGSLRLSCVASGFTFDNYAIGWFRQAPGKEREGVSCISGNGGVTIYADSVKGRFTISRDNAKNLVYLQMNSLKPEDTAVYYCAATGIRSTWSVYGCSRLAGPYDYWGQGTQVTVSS
Fulfilled

Is it true that koff reported for NRCoV2-SR02 VHH (VHH) VHH: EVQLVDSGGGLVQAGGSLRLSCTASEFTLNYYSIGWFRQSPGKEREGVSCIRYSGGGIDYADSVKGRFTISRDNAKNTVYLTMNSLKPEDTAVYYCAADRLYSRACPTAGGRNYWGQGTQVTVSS is less than 0.001 s⁻¹?
Fulfilled

Attribution: patent US20240270826A1
